Each entry below carries its recorded CC50 at 72 h.
assay: Cytotoxicity against human HuH7 cells after 3 days by tetrazolium dye method; type: cell-based, Huh-7
measured_metric: CC50 at 72 h

In [3]: df
Out[3]:
                                input_smiles  assay_result
 0  COc1ccccc1NC(=O)c1c(NCCO)cc(-c2cccs2)oc1=O       > 20 µM
 1  COc1cccc(NC(=O)c2c(NCCO)cc(-c3ccc(Br)cc3)oc2=O)c1       > 20 µM
 2  COc1ccccc1NC(=O)c1c(NCCO)cc(-c2cccc(Br)c2)oc1=O       > 20 µM
 3    O=C(Nc1ccccc1)c1c(NO)cc(-c2cccs2)oc1=O       > 20 µM
 4  O=C(NC1CCCCC1)c1c(NO)cc(-c2ccc(Cl)cc2)oc1=O        8.8 µM
 5  O=C(Nc1cccc(C(F)(F)F)c1)c1c(NO)cc(-c2ccccc2)oc1=O         19 µM
 6  O=C(Nc1ccc(Cl)cc1)c1c(NO)cc(-c2cccs2)oc1=O       > 20 µM
 7  O=C(Nc1ccc(Cl)cc1)c1c(NCCO)cc(-c2ccc(Br)cc2)oc1=O       > 20 µM
 8  Cc1cccc(NC(=O)c2c(NO)cc(-c3cccs3)oc2=O)c1       > 20 µM
 9   CONc1cc(-c2ccc(C)cc2)oc(=O)c1C(=O)NCCCO      > 100 µM
10      O=C(NCCBr)c1c(NCCO)cc(-c2cccs2)oc1=O       > 20 µM
11  CCOc1ccccc1NC(=O)c1c(NO)cc(-c2ccccc2)oc1=O       > 20 µM
12  CCOc1ccccc1NC(=O)c1c(NCCO)cc(-c2ccc(Br)cc2)oc1=O       > 20 µM
13   Nc1ccccc1NC(=O)c1c(NO)cc(-c2cccs2)oc1=O       > 20 µM
14   Cc1ccccc1NC(=O)c1c(NO)cc(-c2cccs2)oc1=O       > 20 µM
15  CCOc1ccccc1NC(=O)c1c(NCCO)cc(-c2cccc(Br)c2)oc1=O       > 20 µM
16  Cc1ccc(-c2cc(NO)c(C(=O)NC3CCCCC3)c(=O)o2)cc1       10.1 µM
17   O=C(NC1CC1)c1c(NO)cc(-c2ccc(F)cc2)oc1=O       > 20 µM
18  COc1ccccc1NC(=O)c1c(NCCO)cc(-c2ccc(Br)cc2)oc1=O       > 20 µM
19  COc1ccc(NC(=O)c2c(NCCO)cc(-c3ccc(Br)cc3)oc2=O)cc1       > 20 µM
20  O=C(Nc1ccccc1O)c1c(NO)cc(-c2ccccc2)oc1=O         14 µM
21  O=C(Nc1ccc(F)cc1)c1c(NO)cc(-c2cccs2)oc1=O       > 20 µM
22  CCOc1ccccc1NC(=O)c1c(NCCO)cc(-c2cccs2)oc1=O         10 µM
23  COc1ccc(-c2cc(NO)c(C(=O)NC3CCCCC3)c(=O)o2)cc1       13.9 µM
